The compounds below have reported IC50 for DCN1 (Homo sapiens (Human)).
// note: answer is a bare numeric in nM

COMPOUND	DISPLAY_UNIT	MEASURED
C=C(CN1CCOCC1)C(=O)NC[C@H](Cc1ccccc1)NC(=O)[C@H](Cc1nc2ccc(C(C)C)cc2s1)NC(=O)CC [Example 7]	nM	37.4

Q) Any idea what its IC50 is? The compound is CCC(=O)N[C@@H](Cc1nc2ccc(Cl)cc2s1)C(=O)N[C@H](CNC(=O)CCl)Cc1ccccc1 [Example 20]
A) 360

###

pIC50: −log10 of the molar value.
The compounds below have reported pIC50 for DCN1 (Homo sapiens (Human), UniProt Q96GG9).

Sample answers from the record:
C=C(Cn1ccnc1)C(=O)NC[C@@H](NC(=O)[C@H](Cc1nc2ccc(C(C)C)cc2s1)NC(=O)CC)C1CCCCC1 > 6.82
C=C(CN1CCN(CCO)CC1)C(=O)NC[C@@H](NC(=O)[C@H](Cc1nc2ccc(C(C)C)cc2s1)NC(=O)CC)C1CCCCC1 > 6.82
C=CC(=O)NC[C@H](Cc1ccncc1)NC(=O)[C@H](Cc1nc2ccc(C(C)C)cc2s1)NC(=O)CC > 6.82

Let us examine a further case.
Q) Any idea what its pIC50 is? The compound is `C=C(CN1CCOCC1)C(=O)NC[C@H](Cc1ccccc1)NC(=O)[C@H](Cc1nc2ccc(Cl)cc2s1)NC(=O)CC`
A) 6.81

Sourced from patent US10500194B2
